Test system: Candida parasilosis ATCC22019
measured.parameter: MIC (µg/mL)

molecule: N#CSC1=C(Nc2ccc(Br)cc2)C(=O)c2cccnc2C1=O
units.of.measure: µg/mL
cmp: <
readout.value: 0.8

molecule: CCCCCCCCCSC1=C(Cl)C(=O)c2ncccc2C1=O
units.of.measure: µg/mL
cmp: =
readout.value: 25

molecule: CC(=O)N1CCN(c2ccc(OCC3COC(Cn4ccnc4)(c4ccc(Cl)cc4Cl)O3)cc2)CC1 (stereo not shown) [Ketoconazole, ketoconazole, reference compound]
units.of.measure: µg/mL
cmp: =
readout.value: 12.5

molecule: CSC1=C(Nc2ccc(Cl)cc2)C(=O)c2cccnc2C1=O
units.of.measure: µg/mL
cmp: =
readout.value: 25

molecule: N#CSC1=C(Nc2ccc(I)cc2)C(=O)c2cccnc2C1=O
units.of.measure: µg/mL
cmp: =
readout.value: 100

molecule: CCCCCCCCSC1=C(Cl)C(=O)c2ncccc2C1=O
units.of.measure: µg/mL
cmp: =
readout.value: 3.2

molecule: O=C1C(Nc2ccc(Cl)cc2)=C(Br)C(=O)c2ncccc21
units.of.measure: µg/mL
cmp: =
readout.value: 25

Where do these numbers come from? They come from patent US6818653B1.
